All values here come from patent US11667697.

Below, each entry is listed alongside its reported PRNT IC50, CPXV MV+C'.
system under test: CPXV ortholog of L1 (cowpox virus)
assay procedure: cell-based or functional assay
experimental readout: PRNT IC50, CPXV MV+C'

{"binder": "VACV-33 (antibody, V domains shown) VH: QLQLQESGPGLVKPSETLSLTCTVSGGSISSGGYYWGWIRQPPGKGLEWIASIYYSGSTYYNPSLKSRVTISVDTSKTQFSLKLSSVTAADTAVYYCARQSSSTGGFHYWGQGTLVTVSS VL: QSVLTQPPSVSGAPGQRVTISCTGSSSNIGAGYDVHWYQHLPGTAPKLLIYGNSNRPSGVPDRFSGSKSGTSASLAITGLQAEDEANYYCQSYDSSLSGREVFGGGTQLTVL", "experimental result": "0.2 µg/mL"}
{"binder": "MPXV-83 (antibody, V domains shown) VH: QVQLVESGGGVVQPGRSLRLSCAASGFTFSSYSMHWVRQAPGKGLEWVAVISFDGRSNYYADSVRGRFTISRDNSKKTMYLQMNSLRLADTAVYYCARGGIGAPDPRNGLEVWGRGAPVTLSS VL: DIQMIQSPSSLSASVGDRVTISCQATQDISNSVNWYQQKPGKAPKLLIYDASTLETGVPSRFSGGGSGTHFTFTISSLQPEDIATYYCQQFHSLPPTFGQGPKGISK", "experimental result": "0.1 µg/mL"}
{"binder": "MPXV-87 (antibody, V domains shown) V domain 1: QVQLVQSGAEVKKPGASVKVSCKASGYTFTSHGIIWVRQAPGQGLEWMGWISVYNDNTNSAQKFQDRVTMTTATSTSTAYMELRSLRSDDTAVYYCARSSSGPRYYYYGMDVWGQGTTSP V domain 2: QSVVTQPPSVSGAPGQRVTISCTGSSSNIGAGYAVHWYYQLPGIAPKLLIFGNNNRPSGVPDRFSGSKSGTSASLAITGLQAEDEADYYCQSYDSSLSGWVFGGGTQVTVL", "experimental result": "0.6 µg/mL"}
{"binder": "MPXV-26 (antibody, V domains shown) VH: QVQLVQSGGGLIQPGGSLRLSCVVSGFNVATNYMSWVRQAPGKGLEWVSVIYSGGSTYYADSVKGRFTISRDNSKNTVFLQMNSLRPEDTAAYYCAKGGGLGLDYWGQGTLVTVSS VL: QSALTQPPSASGSPGQSVTITCTGSSSDVGGYNYVSWYQQHPGKAPKVVIYEVNKRPSGVPHRFSGSKSGNTASLTVSGLQAEDEADYYCSSYAGTETVAFGGGTKLTVL", "experimental result": "0.2 µg/mL"}
